- System: Haemophilus influenzae
- assay-notes: Antimicrobial activity against drug-susceptible Haemophilus influenzae 4 after 20 hrs by agar dilution method
- Format: functional
- reported-conditions: Haemophilus influenzae, 20 h; read-out: MIC
result-type: MIC (µg/mL)

Use the examples below as a reference point.
| molecule | quantitative-result |
| --- | --- |
| CCOC(=O)[C@H]1[C@H](C)O[C@@H](O[C@H]2[C@H](N(C)C)[C@@H](O)[C@H](O[C@H]3[C@@H](CC=O)C[C@@H](C)[C@@H](O)CN(C)CCC[C@H](C/C=C/c4ccc5ccccc5c4)OC(=O)C[C@@H](OC(=O)CC)[C@@H]3OC)O[C@@H]2C)C[C@@]1(C)O | 16 |
| CCOC(=O)[C@H]1[C@H](C)O[C@@H](O[C@H]2[C@H](N(C)C)[C@@H](O)[C@H](O[C@H]3[C@@H](CC=O)C[C@@H](C)[C@@H](O)CN(C)CC(/C=C/Cc4ccc5ncccc5c4)CCOC(=O)C[C@@H](OC(=O)CC)[C@@H]3OC)O[C@@H]2C)C[C@@]1(C)O (some centres undefined) | 8 |

a. CCC(=O)O[C@@H]1CC(=O)NCCCN(CCCc2ccnc3ccccc23)C[C@H](O)[C@H](C)C[C@H](CC=O)[C@H](O[C@@H]2O[C@H](C)[C@@H](O)[C@H](N(C)C)[C@H]2O)[C@H]1OC
b. CCOC(=O)[C@H]1[C@H](C)O[C@@H](O[C@H]2[C@H](N(C)C)[C@@H](O)[C@H](O[C@H]3[C@@H](CC=O)C[C@@H](C)[C@@H](O)CN(CCCCc4ccccc4)CCCNC(=O)C[C@@H](OC(=O)CC)[C@@H]3OC)O[C@@H]2C)C[C@@]1(C)OC(C)=O
// compare measured MIC, left a , right b , return larger Identify your pick by its label.
a
